Sourced from ChEMBL document CHEMBL4477226

Parameter half-life: see the listing below.
ASSAY INFO: Half life in pH 7.4 phosphate buffered saline at 2 mg using kimax glassware by LC-MS analysis
Type: physicochemical
MEASURED PARAMETER: half-life

{"SMILES": "CCCCCCCCCCCCCCCCSSCCOP(=O)(O)CO[C@H](C)Cn1cnc2c(N)ncnc21.N", "RESULT": "< 2 h"}
{"SMILES": "CCCCCCCCCCCCCCSSCCOP(=O)(O)CO[C@H](C)Cn1cnc2c(N)ncnc21.N", "RESULT": "< 2 h"}

---

ASSAY INFO: Cytotoxicity against human HepG2.2.15 cells assessed as reduction in cell viability after 6 days by XTT assay
Assay type: cell-based, HepG2 2.2.15
CONDITION: HepG2.2.15 cells
Where a name gives a salt, the structure may show the parent alone.

{"COMPOUND": "CCCCCCCCCCSSCCOP(=O)(CO[C@H](C)Cn1cnc2c(N)ncnc21)OCCSSCCCCCCCCCC", "CC50 at 144 h": "> 100 µM"}
{"COMPOUND": "CCCCCCCCCCCCCCCCCCSSCCOP(=O)(CO[C@H](C)Cn1cnc2c(N)ncnc21)OCCSSCCCCCCCCCCCCCCCCCC", "CC50 at 144 h": "> 25 µM"}
{"COMPOUND": "CC(C)OC(=O)OCOP(=O)(CO[C@H](C)Cn1cnc2c(N)ncnc21)OCOC(=O)OC(C)C [TENOFOVIR DISOPROXIL FUMARATE]", "CC50 at 144 h": "29.2 to 64.5 µM"}
{"COMPOUND": "CCCCCCCCCCCCSSCCOP(=O)(CO[C@H](C)Cn1cnc2c(N)ncnc21)OCCSSCCCCCCCCCCCC", "CC50 at 144 h": "> 100 µM"}
{"COMPOUND": "CCCCCCCCCCCCCCSSCCOP(=O)(CO[C@H](C)Cn1cnc2c(N)ncnc21)OCCSSCCCCCCCCCCCCCC", "CC50 at 144 h": "> 100 µM"}
{"COMPOUND": "CCCCCCCCCCCCCCCCSSCCOP(=O)(CO[C@H](C)Cn1cnc2c(N)ncnc21)OCCSSCCCCCCCCCCCCCCCC", "CC50 at 144 h": "> 25 µM"}

---

ASSAY INFO: Therapeutic index, ratio of CC50 for human PBMC to EC50 for HIV1 infected in human PBMC
Assay type: toxicity
CONDITION: read-out: Ratio CC50/EC50
Structures can show the parent of a compound that is named as a salt.
Entries annotated with measured selectivity ratio

{"COMPOUND": "CCCCCCCCCCCCCCCCSSCCOP(=O)(CO[C@H](C)Cn1cnc2c(N)ncnc21)OCCC (stereo not given in full)", "RESULT OPERATOR": "=", "selectivity ratio": 49}
{"COMPOUND": "CC(C)OC(=O)OCOP(=O)(CO[C@H](C)Cn1cnc2c(N)ncnc21)OCOC(=O)OC(C)C [TENOFOVIR DISOPROXIL FUMARATE]", "RESULT OPERATOR": "=", "selectivity ratio": 9500}
{"COMPOUND": "CCCCCCCCCCCCCCCCSSCCOP(=O)(CO[C@H](C)Cn1cnc2c(N)ncnc21)OCC(C)(C)C (mixture of isomers)", "RESULT OPERATOR": ">", "selectivity ratio": 700}
{"COMPOUND": "CCCCCCCCCCCCCCCCOCCCOP(=O)(O)CO[C@H](C)Cn1cnc2c(N)ncnc21", "RESULT OPERATOR": ">", "selectivity ratio": 5000}
{"COMPOUND": "C[C@H](Cn1cnc2c(N)ncnc21)OCP(=O)(O)OCCSSCCO", "RESULT OPERATOR": ">", "selectivity ratio": 62.1}

---

ASSAY INFO: Half life in DMEM at 2 mg using kimax glassware by LC-MS analysis
Assay type: physicochemical

{"SMILES": "CCCCCCCCCCCCCCSSCCOP(=O)(O)CO[C@H](C)Cn1cnc2c(N)ncnc21.N", "half-life": "< 2 h"}
{"SMILES": "CCCCCCCCCCCCCCCCSSCCOP(=O)(O)CO[C@H](C)Cn1cnc2c(N)ncnc21.N", "half-life": "< 2 h"}

---

ASSAY INFO: Half life in human gastric juice
Assay type: ADME, tissue-based
MEASURED PARAMETER: half-life

{"SMILES": "Nc1ncnc2c1ncn2CCOCP(=O)(OCCSSCCO)OCCSSCCO", "RESULT": "> 24 h"}

---

ASSAY INFO: Therapeutic index, ratio of CC50 for human HepG2.2.15 cells to EC50 for HBV infected in human HepG2.2.15 cells
Type: toxicity, cell-based
CONDITION: read-out: Ratio CC50/EC50

{"SMILES": "CCCCCCCCCCCCCCCCSSCCOP(=O)(CO[C@H](C)Cn1cnc2c(N)ncnc21)OCCSSCCCCCCCCCCCCCCCC", "selectivity ratio": "> 1"}
{"SMILES": "CCCCCCCCCCSSCCOP(=O)(O)CO[C@H](C)Cn1cnc2c(N)ncnc21", "selectivity ratio": "> 1"}
{"SMILES": "CCCCCCCCCCCCCCCCSSCCOP(=O)(O)CO[C@H](C)Cn1cnc2c(N)ncnc21.N", "selectivity ratio": "1200 to 1250"}
{"SMILES": "CCCCCCCCCCCCCCCCCCSSCCOP(=O)(CO[C@H](C)Cn1cnc2c(N)ncnc21)OCCSSCCCCCCCCCCCCCCCCCC", "selectivity ratio": "> 1"}

---

Test system: HepG2 2.2.15
ASSAY INFO: Cytotoxicity against human HepG2.2.15 cells assessed as reduction in cell viability after 6 days by XTT assay
Format: cell-based
CONDITION: hepg2 2.2.15, 144 h

{"SMILES": "CCCCCCCCCCCCSSCCOP(=O)(O)CO[C@H](C)Cn1cnc2c(N)ncnc21", "TARGET DESC": "HepG2 2.2.15", "CC50": "> 50 µM"}
{"SMILES": "CCCCCCCCCCSSCCOP(=O)(O)CO[C@H](C)Cn1cnc2c(N)ncnc21", "TARGET DESC": "HepG2 2.2.15", "CC50": "> 50 µM"}
{"SMILES": "CCCCCCCCCCCCCCCCCCSSCCOP(=O)(O)CO[C@H](C)Cn1cnc2c(N)ncnc21", "TARGET DESC": "HepG2 2.2.15", "CC50": "> 50 µM"}
{"SMILES": "C[C@H](Cn1cnc2c(N)ncnc21)OCP(=O)(O)OCCS", "TARGET DESC": "HepG2 2.2.15", "CC50": "> 100 µM"}
{"SMILES": "C[C@H](Cn1cnc2c(N)ncnc21)OCP(=O)(O)OCCSSCCO", "TARGET DESC": "HepG2 2.2.15", "CC50": "> 100 µM"}
{"SMILES": "CCCCCCCCCCCCCCCCSSCCOP(=O)(O)CO[C@H](C)Cn1cnc2c(N)ncnc21.N", "TARGET DESC": "HepG2 2.2.15", "CC50": "> 25 µM"}
{"SMILES": "CCCCCCCCCCCCCCSSCCOP(=O)(O)CO[C@H](C)Cn1cnc2c(N)ncnc21.N", "TARGET DESC": "HepG2 2.2.15", "CC50": "> 25 µM"}

---

ASSAY INFO: Half life in human serum at 10^-3 M by HPLC analysis
Assay type: ADME, cell-free

{"SMILES": "Nc1ncnc2c1ncn2CCOCP(=O)(OCCSSCCO)OCCSSCCO", "half-life at 1000 µM": "< 4.98 min"}

---

Test system: PBMC
ASSAY INFO: Cytotoxicity against human PBMC assessed as reduction in cell viability by XTT assay
Format: cell-based

{"MOLECULE": "CCCCCCCCCCCCCCCCSSCCOP(=O)(CO[C@H](C)Cn1cnc2c(N)ncnc21)OCC(C)(C)C (mixture of isomers)", "TARGET DESC": "PBMC", "CC50": "> 100 µM"}
{"MOLECULE": "CCCCCCCCCCCCCCCCOCCCOP(=O)(O)CO[C@H](C)Cn1cnc2c(N)ncnc21", "TARGET DESC": "PBMC", "CC50": "> 100 µM"}
{"MOLECULE": "C[C@H](Cn1cnc2c(N)ncnc21)OCP(=O)(O)OCCS", "TARGET DESC": "PBMC", "CC50": "> 100 µM"}

---

selectivity ratio for assorted compounds
ASSAY INFO: Therapeutic index, ratio of CC50 for human PBMC to EC50 for HIV1 infected in human PBMC
Type: toxicity
CONDITION: read-out: Ratio CC50/EC50

{"COMPOUND": "CCCCCCCCCCSSCCOP(=O)(CO[C@H](C)Cn1cnc2c(N)ncnc21)OCCSSCCCCCCCCCC", "selectivity ratio": "> 287"}
{"COMPOUND": "CCCCCCCCCCCCCCCCSSCCOP(=O)(CO[C@H](C)Cn1cnc2c(N)ncnc21)OCCCCCCCC (some centres undefined)", "selectivity ratio": "> 50"}
{"COMPOUND": "CCCCCCCCCCCCSSCCOP(=O)(CO[C@H](C)Cn1cnc2c(N)ncnc21)OCCSSCCCCCCCCCCCC", "selectivity ratio": "> 85"}
{"COMPOUND": "C[C@H](Cn1cnc2c(N)ncnc21)OCP(=O)(O)O [TENOFOVIR ANHYDROUS]", "selectivity ratio": "> 300"}
